# RUN_DESCRIPTION: Cytotoxicity against human Huh-7 cells by MTT assay
# Format: toxicity, cell-based
READOUT_TYPE: CC50

smiles_input=Cc1cc(C)nc(NS(=O)(=O)c2ccc(-n3cc(COc4ccc([N+](=O)[O-])cc4)nn3)cc2)n1 measurement="7.5 µg/mL"

###

# RUN_DESCRIPTION: Cytotoxicity against human erythrocytes
# Format: toxicity, cell-based, Erythrocyte
Collected CC50 values appear next to each entry.
READOUT_TYPE: CC50

compound="CCN(CC)CCCC(C)Nc1ccnc2cc(Cl)ccc12 (stereo not drawn)" readout_type=CC50 measurement="> 100 µg/mL"
compound="C[C@H]1[C@H](OC(=O)CCC(=O)O)O[C@@H]2O[C@@]3(C)CC[C@H]4[C@H](C)CC[C@@H]1[C@@]24OO3 [ARTESUNATE]" readout_type=CC50 measurement="> 100 µg/mL"
compound=O=[N+]([O-])c1ccc(Cn2cc(CO)nn2)cc1 readout_type=CC50 measurement="> 100 µg/mL"
